- Test system: HCT-116 colon
- ASSAY NAME: NCI tumour cell line growth inhibition, 48 h
Each item that follows carries a reported TGI.

// below: answered compounds
COMPOUND: CCOC(=O)C(Cc1cccn1C(=O)OC(C)(C)C)[N+](=O)[O-] (stereo unspecified)
READING: 51.3 µM
--
COMPOUND: CC1C2(C)OC(=N)C(C#N)(C(c3cccc([N+](=O)[O-])c3)O2)C1(C#N)C#N (stereo unspecified)
READING: 40.4 µM
--
COMPOUND: COc1ccc(CN=C(N)N)c2ccccc12
READING: > 100 µM

Tell me its TGI given CC/C(CC(=O)CCC(=O)Nc1ccccc1[N+](=O)[O-])=N/NC(=O)C[n+]1ccccc1 as the entry.
> 100 µM

Return reported TGI. Input compound: CN(C)CCCn1nc(N)c2nc3cc(Cl)ccc3nc21
> 100 µM

Look up TGI of CC(=O)OC1COC(Nc2nc(NCc3ccccc3)n(C)c(=O)c2N=O)C(OC(C)=O)C1OC(C)=O (stereo unspecified) and report it.
> 10 µM

Using the record for O=C1C(Cl)C(c2ccccc2O)N1n1cnc2ccccc2c1=O (stereo unspecified) , state its measured TGI.
> 100 µM

Read the entry COc1cc2cc(C(=O)N3CC(CCl)c4c3cc(N)c3ccccc43)[nH]c2c(OC)c1OC (stereo unspecified) and write its reported TGI.
1.08 µM

Respond only with TGI recorded for Nc1nc2c(c(=O)[nH]1)C(c1ccc(Cl)cc1)C=C(c1ccccc1)N2 (stereo unspecified)
41.8 µM

Look up and report measured TGI for this entry: O=c1[nH]c2cc(Cl)ccc2nc1/C(=N\O)C(O)c1ccc([N+](=O)[O-])cc1 (stereo unspecified)
> 100 µM

Give the reported value of TGI for this record: O=C(Cc1ccccc1)Nn1c(-c2ccccc2)nc2ccccc2c1=O
> 100 µM

Recall and state the measured TGI for CC(=O)OC1CC2C(C)(C)C(=O)C=C[C@]2(C)C2CCC3(C)C(=CC(=O)C3c3ccoc3)[C@]12C (stereo partly specified) .
24.9 µM

Provide measured TGI value, entry: CC[N+]1(C)CCC(O)(c2ccc(OC)cc2)C(C(=O)c2ccc(OC)cc2)C1 (stereo unspecified)
28.1 µM

* * *

- System: MDA-N
- ASSAY NAME: NCI tumour cell line growth inhibition, 48 h
Recorded TGI values for a group of compounds are listed next.

Recorded TGI, per entry:
COMPOUND: COc1ccc(-c2c3c(n(C4OC(COC(C)=O)C(OC(C)=O)C(OC(C)=O)C4OC(C)=O)c(=S)c2C#N)CC(C)(C)CC3=O)cc1 (stereo not drawn)
TGI: > 100 µM

COMPOUND: COc1ccc(C2SCC(=O)N2NC(=O)c2ccc(NC(C)=O)cc2)cc1 (stereo not drawn)
TGI: > 100 µM

COMPOUND: O=C(O)C(Cl)(c1ccccc1)c1ccccc1
TGI: > 100 µM

COMPOUND: C/C=C/C1OC(O)(C(C)C(O)[C@H](C)C2OC(=O)/C(OC)=C/C(C)=C/[C@@H](C)[C@@H](O)[C@@H](C)C(O)C(C)C/C(C)=C/C=C/C2OC)C[C@@H](OC2CC(O)C(OC(N)=O)C(C)O2)C1C (stereo partly drawn)
TGI: 1.11 µM

COMPOUND: O=S(=O)(/N=C(\NO)Nc1ccc(Cl)cc1)c1cccc2nsnc12
TGI: 79 µM

GET TGI | system: MDA-N | item: CC(=O)OC1COC(Nc2nc(NCc3ccccc3)n(C)c(=O)c2N=O)C(OC(C)=O)C1OC(C)=O (stereo not drawn)
> 10 µM

Write TGI of Nc1ccc(C(=O)c2cn(CCN3CCOCC3)c3ccccc23)c2ccccc12 ; system used: MDA-N
> 100 µM

For MDA-N, give the measured TGI of the entry FC(F)(F)c1cccc(-c2nc3ccccc3c3c2[C@@]2(N4CCCC4)CCCC[C@@H]32)c1
> 100 µM

* * *

- Tested on: XF 498 CNS
- ASSAY NAME: NCI tumour cell line growth inhibition, 48 h
Would you please tag the item T when its TGI is 40 µM or above, and F when it is below?

Solved entries (count: 8):
COMPOUND: CC(=O)OC1CC2C(C)(C)C(=O)C=C[C@]2(C)C2CCC3(C)C(=CC(=O)C3c3ccoc3)[C@]12C (stereo partly specified)
ASSAYED SYSTEM: XF 498 CNS
GROUP LABEL: T
--
COMPOUND: CC[N+]1(C)CCC(O)(c2ccc(OC)cc2)C(C(=O)c2ccc(OC)cc2)C1 (stereo unspecified)
ASSAYED SYSTEM: XF 498 CNS
GROUP LABEL: F
--
COMPOUND: CCCN(CCCC(NC(C)=O)C(=O)NCc1ccccc1)C(=O)NCCCl (stereo unspecified)
ASSAYED SYSTEM: XF 498 CNS
GROUP LABEL: T
--
COMPOUND: CC(C)(C)C1CCC2c3c([nH]c4ccccc34)C3C(=O)N(c4ccccc4)C(=O)C3C2C1 (stereo unspecified)
ASSAYED SYSTEM: XF 498 CNS
GROUP LABEL: F
--
COMPOUND: CSc1n[n+]2c(s1)SCCC2
ASSAYED SYSTEM: XF 498 CNS
GROUP LABEL: T
--
COMPOUND: CN(C)c1nc(=Nc2cccc(Cl)c2)ss1
ASSAYED SYSTEM: XF 498 CNS
GROUP LABEL: F
--
COMPOUND: CN1C(=O)C(=O)c2cc3c(c4c2c1cc1ccccc14)OCO3
ASSAYED SYSTEM: XF 498 CNS
GROUP LABEL: T
--
COMPOUND: O=C1CCCCCCCCCCC1CN1CCCCC1 (stereo unspecified)
ASSAYED SYSTEM: XF 498 CNS
GROUP LABEL: T

In plain terms: is recorded TGI at least 40 µM for Cc1c(C(=O)/C=C/c2ccccc2O)c(=O)n(-c2ccccc2)n1C ?
T

Form field: TGI at least 40 µM? Entry: CCOC(=N)/C(=C1\OC(N)=C(c2ccc(Cl)cc2)C1=O)c1ccc(Cl)cc1
F

Form field: TGI at least 40 µM? Entry: C=C(OC1C(C)=C2C(C1OC(=O)CCCCCCC)C(C)(OC(C)=O)CC(OC(=O)CCC)C1(O)C2OC(=O)C1(C)O)/C(C)=C/C (stereo unspecified)
F

Is the recorded value of TGI equal to or greater than 40 µM for this compound? CCOc1cccc2ccc[n+](CC)c12
T

Test whether the compound Cc1c(C(=O)/C=C/c2ccc(N(C)C)cc2)c(=O)n(-c2ccccc2)n1C records TGI of 40 µM or higher.
T

Say whether O=c1c2cccc3cccc(c4n1CCN=4)c32 shows TGI of 40 µM or more.
T

* * *

A collection of compounds and their measured GI50
- System: MDA-MB-231 breast
- ASSAY NAME: NCI tumour cell line growth inhibition, 48 h

Answered cases to consult:
COMPOUND: CCCC(CCC)C(=O)OCC1(CO)C/C(=C\c2ccc(F)cc2)C(=O)O1 (centres undefined)
GI50: 6.98 µM

COMPOUND: Nc1nc(Cl)c(N=Nc2ccc(Cl)cc2)c(NCC2(CO)CCC2)n1
GI50: 8.74 µM

COMPOUND: COc1ccc2nc3cc([N+](=O)[O-])ccc3c(NCCCN(C)C)c2c1
GI50: 0.394 µM

COMPOUND: CC(C)(C)[Si](C)(C)OC1[C@@H](O[Si](C)(C)C(C)(C)C)[C@@H](CNC(=O)NC(=O)CCl)O[C@H]1n1cnc2c(NC(=O)Nc3ccccc3)ncnc21 (some centres undefined)
GI50: 0.507 µM

COMPOUND: CCCCCCCCCCC1OC([C@@H](O)CC[C@H](O)C2CC[C@@H](CCCCCCCC(O)CC3=CC(C)OC3=O)O2)CCC1O (some centres undefined)
GI50: 5.88 µM

Return reported GI50. Input compound: COc1cccc(/C=C/C(=O)c2ccc(Cl)cc2Cl)c1
8.11 µM

Please report the measured GI50 for COc1ccc(/C=N\Nc2ccc([N+](=O)[O-])cn2)cc1OC
6.82 µM

// fetch GI50 given entry N#CCN/C=C\C(=O)c1ccc(Cl)cc1
31.8 µM

State its GI50 for this compound: Cc1cc(CC(C)CC(C)(C)C)n(O)c(=O)c1 (centres undefined) (tested in a mixture with another compound)
0.45 µM

* * *

GI50 values, listed per item
- Tested on: EKVX NSCLC
- ASSAY NAME: NCI tumour cell line growth inhibition, 48 h

Consider the worked cases shown below.
SMILES TEXT: COc1cc(Nc2nc3ccccc3cc2C(=O)Nc2ccc(F)c(F)c2)cc(OC)c1OC
GI50: 2.87 µM
//
SMILES TEXT: CC(C)(C)CC(C)(C)NCc1cc(C(C)(C)C)cc(CNC(C)(C)CC(C)(C)C)c1O
GI50: 2.78 µM

Determine its reported GI50: Cc1ccc(N(CC(=O)Nc2ccc(S(=O)(=O)N3CCC(N4CCCC4)CC3)cc2)S(=O)(=O)c2ccc(Cl)cc2)cc1
1.69 µM

Report GI50, nothing else, for this molecule: COC(=O)c1cc(O)c2c(c1C(=O)OC)C[C@H]1[C@@H]3CC=C4C[C@@H](O)CC[C@]4(C)[C@H]3CC[C@]21C
3.29 µM
